These data points were gathered from the supplement of paper PMC9170038.

Each entry below lists one item and its recorded apparent KD of MS2 coat protein value.
System: MS2 coat protein
test.protocol: apparent KD of MS2 coat protein; higher = weaker reporter binding
cond: Eterna round: R107; input ligand: theophylline 2 mM
Respond numerically; units are µM and should not be typed.

Below: 10 sequences and their reported apparent KD of MS2 coat protein.
>>> recorded_value("GGGACUAGAUCGGCCGCCACUGAUGGGACAUGAGGAUCACCCAUGUACGAAGUGAUCCAAUAAAUCAGGACCGGGAUCACUUGUA [Tryp B Ex t6]")
0.173
>>> recorded_value("UGACAUUGCUCAGAUACCAGACAUGAGCAUCAGCCAUGUGCCAACAAGUACAAAAUAAAUGUCCCUUGGCAGCUGAGCAAUGUCU [TheoBX 23 #MS2Left #AlternativeMS2 #Theo22]")
0.153
>>> recorded_value("UGUAUGGACUGAAGGAGCGGGAAAUAAACCUGAGGAACACCCAGGUAAUAGGCGAAAGCCACCCAGGUAGGUCGCAGUCCAUACU")
0.0144
>>> recorded_value("GAUAGAACAAAAGUUUUAUCAGUGGGUGAACGAGGACCGGUACGGCCGCCACUCGGACAUGAGGAUCACCCAUGUCCAUGUGAAA [AstrosExyTryA#17]")
0.0195
>>> recorded_value("CUGGACAUGAGGAUCACCCAUGUAAAUCCUCGAGGACCGGUACGGCCGCCACUCGAACGAGUGGCGCGCGAGUGCGCACUCGCGC [aKa]")
0.0493
>>> recorded_value("GGAUCCAUCCGAAGGAGCGUCGGAAAUGGGUAAACAUGAGGAUCACCCAUGUAAAGGGAACGGCAGGUAGGUCGCGGAUGGAUCC [#25 Same State - Arginine B]")
0.157
>>> recorded_value("UGUUUCGCGGGCGAUACCAGCUUGAUCGUACUGGCCUGGUACAUGAGGAUCACCCAUGUAAGCCCUUGGCAGCGCGCGCGAGACG [#1 Exclusion - Theophylline B Attempt #3 (HarryS)]")
0.0324
>>> recorded_value("UGUAUGUGAACUGAUACCAGACCUCAAUCUUGAGGAUCACCCAAGGAGGACGAAAGUCCGGUCCCUUGGCAGCAGUUCACAUACU [ThBS - Unstable 2]")
0.0405
>>> recorded_value("UCACAUGAGGAUCACCCAUGUACAACUGAAGGAGCGAGACAAAACUCAGGUAGGUCGCAGAAUAAACAAUAGCAUACGACAUGGG [Exclusion Arginine A GF 19]")
0.0263
>>> recorded_value("GGACCAUGGAGCGAUACCAGCUUGAGUGUGCUGGCCAGGCACAUGAGGAUCACCCAUGUAAGCCCUUGGCAGCGCUCCAUGGUCC [#1 Exclusion - Theophylline B Attempt #26 (HarryS)]")
0.0135

Now, please, on to the next sequence.
Can you look up the measured apparent KD of MS2 coat protein of GGCCCUGCGGGCGCCCGCAGGGCCGCGGAUACCAGCGAGGUCCAUCGCCCUUGGCAGCCGAACAUGAGGAUCACCCAUGUCGGUG [Same State - Theophylline A Attempt #8 (HarryS)] for me?
0.0896

---

Test system: MS2 coat protein
test.protocol: apparent KD of MS2 coat protein; higher = weaker reporter binding
cond: Eterna round: R107; input ligand: theophylline 20 uM
Attribute: apparent KD of MS2 coat protein

See these solved cases before continuing.
>>> recorded_value("GGGCCUGUAAGCAGACCCACAGCGGGUGAUACCAGCAAUAAAACUUGCCCUUGGCAGCACACAGCUACAUGAGGAUCACCCAUGU [Rausis]")
"92.9 nM"
>>> recorded_value("GAGCUGAUGUAGAGAAUAAAUAUAAGAGAUACCAGUACAGAAAUGUACCCUUGGCAGCUCAACUUUACAUGAGGAUCACCCAUGU [Ex Theophylline A 18]")
"16.7 nM"
>>> recorded_value("UCGCUCUGGGUGGGAUCCGGAGAUGUGGAAGGAGCGCUGGUAACAGCAGGUAGGUCGCCAACGGACAUGAGGAUCACCCAUGUAC [Same State - Arginine A (Freestyle 17)]")
"40 nM"

Turning to the following sequence.
I am curious: what apparent KD of MS2 coat protein value has been reported for CUUCGCAUAGGAAAACUAUGUGAAGAAAAUCGAGGACCGGUACGGCCGCCACUCGUCCUCAACAUGAGGAUCACCCAUGUAAUAA [Mat - Exclusion - Trytophan A - D6] ?
21.2 nM
